Assignment: determine reported electrical conductivity for the given molecules.
- experimentNotes: xn = mol fraction of the nth substance listed
- experimentalSetup: 288.15 K; 101 kPa; x1 = 0.02551
Numbers only, in S/m.

Some solved entries appear below for comparison.
molecule: O=C([O-])C(F)(F)F.O=S(=O)(O)n1cc[n+](S(=O)(=O)O)c1 + CC#N
uom: S/m
valueMeasured: 1.62
//
molecule: CCc1n(S(=O)(=O)O)cc[n+]1S(=O)(=O)O.O=C([O-])C(F)(F)F + CC#N
uom: S/m
valueMeasured: 1.2
//
molecule: Cc1n(S(=O)(=O)O)cc[n+]1S(=O)(=O)O.O=C([O-])C(F)(F)F + CC#N
uom: S/m
valueMeasured: 1.3

electrical conductivity reading for O=C([O-])C(F)(F)F.O=S(=O)(O)n1cc[n+](S(=O)(=O)O)c1 + CO : 4.64
